target: SpBbc1; assay: SPOT peptide array binding signal intensity (averaged, normalized) (arbitrary units (background-subtracted, floor 0; scale differs between SH3 domains)); higher = stronger binding of the SH3 domain to the peptide
Each entry below carries its reported SPOT peptide array binding signal intensity.
measured-attribute: SPOT peptide array binding signal intensity

1) GKLKHIPRRPYEIER
1.75
2) NLDRSKISLPDFDDE
≤ 0
3) SPLGAPPPPPHKDHL
≤ 0
4) MTKTPETSPPKRPMG
0.5
5) QHQQRQPKRPKRYSL
31
6) SSSSSPPPLPTRRDH
13
7) RKLRTVPGVPLIHLT
≤ 0
8) SKSRLLIELPEGFFT
≤ 0
9) ISRRRLPVIMHRLKM
0.5
10) TTAPALPSLPPPPLL
7.5
11) RRRIAYPFYPFKKLG
1
12) QFDLKMPSKPIHNLK
1.5
13) YSRKKLPVVLSKMTL
3
14) GTIARPLFLVVLFFI
2
15) EREKALPPIPFTTTL
≤ 0
